The values you see were collected from PubChem BioAssay (NCI).

system: MDA-MB-231 breast; experiment: NCI tumour cell line growth inhibition, 48 h
EXPERIMENTAL_ENDPOINT: TGI

MOLECULE | TGI
Cn1ncnc1[C@@H]1c2n[nH]c(=O)c3cc(F)cc(c23)N[C@H]1c1ccc(F)cc1 | > 100 µM
Cc1ccc(-c2n[nH]c(=O)n2/N=C\c2ccccc2O)cc1 | > 100 µM
COCCN(C(=O)c1ccccc1)C1CCC2(SCCS2)c2[nH]c3ccccc3c21 (stereo unspecified) | > 100 µM
O=P1(NCCCl)OCCCN1CCCl (stereo unspecified) | > 500 µM

Problem: Requested read-out TGI, target or system MDA-MB-231 breast, entry COc1ccc(-c2csc3c2-n2cccc2C3=O)cc1
Solution: > 100 µM

Problem: Cool, now O=C1C=CC2(C=C1)O[C@H](COCc1ccccc1)[C@@H](COCc1ccccc1)O2
Solution: 12.8 µM

Problem: Cool, now N#CC(C#N)=c1c(=O)c2c3ccccc3cc3cccc1c32
Solution: > 100 µM

Problem: Cool, now CN1CCN(Cn2nc(COc3ccccc3Cl)n(/N=C/c3ccc(-c4ccc(Cl)cc4Cl)o3)c2=S)CC1
Solution: 69.5 µM

Problem: Cool, now Cc1ccc(S(=O)(=O)NNC(=O)Nc2cccc(C(F)(F)F)c2)cc1
Solution: > 100 µM

Problem: Cool, now CN1C(=O)C(c2c[nH]c3ccccc23)=C(c2c[nH]c3ccccc23)C1=O
Solution: 15.8 µM

Problem: Cool, now Cc1ccc(S(=O)(=O)n2cc(/C=C/C#N)c(-c3cn(S(=O)(=O)c4ccc(C)cc4)cc3-c3cn(S(=O)(=O)c4ccc(C)cc4)cc3/C=C/C#N)c2)cc1
Solution: > 100 µM

Problem: Cool, now COC(=O)c1cc2ccc(O)c(O)c2cn1
Solution: 25.2 µM

----------
tested on: MDA-MB-231 breast; assay: NCI tumour cell line growth inhibition, 48 h
TGI values, listed per item

MOLECULE | ASSAYED_TARGET | OBSERVED_MEASUREMENT
CC(=O)/C(=C\c1ccc(Cl)cc1)c1ccccc1 | MDA-MB-231 breast | > 100 µM

Problem: Requested read-out TGI, target or system MDA-MB-231 breast, entry C[N+]1([O-])C2CCC1CC(OC(=O)C(CO)c1ccccc1)C2 (stereo not drawn)
Solution: > 100 µM

Problem: Cool, now CC(C)(C)[Si](C)(C)OCC1OC(n2cnc3c(N)ncnc32)C2OC(=S)OC12 (stereo not drawn)
Solution: > 100 µM

----------
system: SW-620 colon; experiment: NCI tumour cell line growth inhibition, 48 h; in the data active = GI50 below about 0.43 µM; inactive = the rest
The reply should be one of these categories: 1.0 = active, 0.0 = inactive

For orientation, consider the following solved cases.
MOLECULE | CLASS_NAME
O=C(N/N=C/c1ccc(Cl)cc1)c1ccc(NC(=O)c2ccccn2)cc1 | 0.0
CC1(C)N=C(N)N=C(N)N1c1ccc(OCCCNC(=O)Nc2ccc(S(=O)(=O)F)cc2)c(Cl)c1 | 1.0
O=C1NN2CC(c3ccccc3)=NN=C2c2ccccc21 | 0.0
CC(=O)/C(=C\c1ccc(Cl)cc1)c1ccccc1 | 1.0

We now examine a further compound.
Problem: For CCCCn1c(=O)[nH]c(N)c([C@@H]2c3c([nH]c(=O)n(CCCC)c3=O)Oc3ccc4ccccc4c32)c1=O , which call appears in the assay record?
Solution: 1.0
